This collection of values is drawn from patent US20200385445A1.

- targetOrSystem: T1, human PVRIG (Poliovirus Receptor Related Immunoglobulin Domain Containing Protein), full length on cells (human, UniProt Q6DKI7 41-326)
- T1 construct: whole, on cells; Over-expressed on HEK293 (some pools flag-tagged) or endogenous on Jurkat, CA46, T cells, NK cells, TILs; also called hPVRIG; HEK hPVRIG
- T1 sequence (looked up): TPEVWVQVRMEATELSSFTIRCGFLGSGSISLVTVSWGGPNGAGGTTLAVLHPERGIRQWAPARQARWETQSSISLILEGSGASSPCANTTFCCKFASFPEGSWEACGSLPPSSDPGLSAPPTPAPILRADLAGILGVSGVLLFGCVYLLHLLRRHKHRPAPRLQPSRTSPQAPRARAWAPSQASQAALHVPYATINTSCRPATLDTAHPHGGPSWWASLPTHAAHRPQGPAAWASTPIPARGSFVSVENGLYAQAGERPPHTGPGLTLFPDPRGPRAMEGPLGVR
- methodSummary: FACS dose titration on PVRIG over-expressing HEK293 cells
pKd: −log10 of the molar value.

binder	pKd
CPA.7.012 human IgG1 (antibody, V domains shown) VH: EVQLVETGGGLIQPGRSLRLSCAASGFTFSSYAMHWVRQAPGKGLEWVAVISYDGSNKYYADSVKGRFTISRDNSKNTLYLQMNSLRAEDTAVYYCARDVMVYCSSTSCYFYGMDVWGQGTTVTVSS VL: DIQMTQSPSSLSASVGDRVTVTCQASQDIRDYLNWYQKKPGKAPKLLIYDASNLEAGVPSRFSGSGSGTDFTFTISGLQPEDVATYYCQQFENLPITFGQGTRLEIKR	9.52
